Data origin: patent US10717742B2

Molecular target: p53-MDM2 interaction (GST-MDM2 protein aa 23-117 / biotinylated p53 wt peptide) (Homo sapiens (Human), UniProt Q00987)
Sequence (Q00987 23-117): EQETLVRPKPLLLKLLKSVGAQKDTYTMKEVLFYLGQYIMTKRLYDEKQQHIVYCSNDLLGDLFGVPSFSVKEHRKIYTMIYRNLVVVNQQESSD
Assay: Mdm2-p53 Inhibition AlphaScreen
Details: GST-MDM2 (aa 23-117) / biotinylated p53 wt peptide
measure_name: pIC50
// field semantics: pIC50 = negative decimal log of concentration (mol/L)

Answered cases to consult:
## Input Recorded pIC50 of "COc1cccc(CCN2[C@H]3CCn4c(nc5cc(C(=O)O)ccc54)[C@H]3[C@H](c3cccc(Cl)c3F)[C@]23C(=O)Nc2cc(Cl)ccc23)c1" , please.
## Output 8.10

## Input Recorded pIC50 of "O=C(O)c1ccc2c3n(nc2c1)[C@@H]1[C@H](C3)N(CC2CC2)[C@@]2(C(=O)Nc3cc(Cl)ccc32)[C@H]1c1cccc(Cl)c1F" , please.
## Output 8.70

## Input Recorded pIC50 of "CC1(NC(=O)c2ccc3c(c2)nc2n3CC[C@H]3[C@@H]2[C@H](c2cccc(Cl)c2F)[C@]2(C(=O)Nc4cc(Cl)ccc42)N3CC2CC2)COC1" , please.
## Output 8.30

## Input Recorded pIC50 of "COCCN1[C@H]2Cc3c4ccc(C(=O)O)cc4nn3[C@H]2[C@H](c2cccc(Cl)c2F)[C@]12C(=O)Nc1cc(Cl)ccc12" , please.
## Output 8.52

## Input Recorded pIC50 of "Cc1cc(C(=O)O)cc2c1nc1n2CC[C@H]2[C@@H]1[C@H](c1cccc(Cl)c1F)[C@]1(C(=O)Nc3cc(Cl)ccc31)N2CC1CC1" , please.
## Output 8.52

Now examine the next entry.
## Input Recorded pIC50 of "Cc1c(C(=O)N2CCCCC2)ccn2c3c(nc12)[C@@H]1[C@H](C3)N(CC2CC2)[C@@]2(C(=O)Nc3cc(Cl)ccc32)[C@H]1c1ccnc(Cl)c1F" , please.
## Output 8.00

###

Target: p53-MDM2 interaction (GST-MDM2 protein aa 23-117 / biotinylated p53 wt peptide) (Homo sapiens (Human), UniProt Q00987)
Assay: Mdm2-p53 Inhibition AlphaScreen
Conditions: GST-MDM2 (aa 23-117) / biotinylated p53 wt peptide
With a cut-off of 10 nM, any IC50 strictly below it is called y; any IC50 meeting it or above is called n.

Use the examples below as a reference point.
## Input Hello, I'm reviewing records and need to know if IC50 of "CC(C)(C)OCCN1[C@H]2CCn3c(nc4cc(C(=O)O)ccc43)[C@H]2[C@H](c2cccc(Cl)c2F)[C@]12C(=O)Nc1cc(Cl)ccc12" is below 10 nM. Could you check?
## Output n

## Input Hello, I'm reviewing records and need to know if IC50 of CS(=O)(=O)c1ccc2c(c1)nc1n2CC[C@H]2[C@@H]1[C@H](c1cccc(Cl)c1F)[C@]1(C(=O)Nc3cc(Cl)ccc31)N2CC1CC1 [Ib-58] is below 10 nM. Could you check?
## Output y

## Input Hello, I'm reviewing records and need to know if IC50 of "O=C(O)c1ccc2c(c1)nc1n2CC[C@H]2[C@@H]1[C@H](c1cccc(Cl)c1F)[C@]1(C(=O)Nc3cc(Cl)ccc31)N2CCC(F)(F)F" is below 10 nM. Could you check?
## Output n

## Input Hello, I'm reviewing records and need to know if IC50 of "O=C(O)c1cc2nc3n(c2cc1C(F)(F)F)C[C@H]1[C@@H]3[C@H](c2cccc(Cl)c2F)[C@]2(C(=O)Nc3cc(Cl)ccc32)N1CC1CC1" is below 10 nM. Could you check?
## Output y

Here is the next item to consider.
## Input Hello, I'm reviewing records and need to know if IC50 of "NC(=O)c1ccc2c(c1)nc1n2C[C@H]2[C@@H]1[C@H](c1cccc(Cl)c1F)[C@]1(C(=O)Nc3cc(Cl)ccc31)N2CC1CC1" is below 10 nM. Could you check?
## Output y
